B1: HEEH_KT_rd6_3632 (parent)
chain: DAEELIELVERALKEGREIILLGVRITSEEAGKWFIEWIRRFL

- Variants of: B1
- Test Summary: folding stability dG (cDNA display proteolysis); higher = more stable
- Condition Info: PBS, room temperature
Endpoint Name: folding stability dG (kcal/mol)
Write the value in kcal/mol as a bare number.

L5P; 2.82
L43D; 2.75
E10I; 4.3
L21T; 2.78
I19W; 3.44

Give the reported value of folding stability dG for this record: `I6P`
3.08

Give the reported value of folding stability dG for this record: `I36R`
3.17

Give the reported value of folding stability dG for this record: `E4T`
4.03

Give the reported value of folding stability dG for this record: `I20W`
3.4

Give the reported value of folding stability dG for this record: `D1E`
3.63

Give the reported value of folding stability dG for this record: `E10N`
3.82

Give the reported value of folding stability dG for this record: `W38C`
3.94

Give the reported value of folding stability dG for this record: `E7W`
3.83

Give the reported value of folding stability dG for this record: `I36A`
3.35

Give the reported value of folding stability dG for this record: `I39Y`
3.43

Give the reported value of folding stability dG for this record: `A12N`
3.13

Give the reported value of folding stability dG for this record: `I26V`
3.29

Give the reported value of folding stability dG for this record: `A12W`
3.76

Give the reported value of folding stability dG for this record: `V9T`
3.09
